Data provenance is paper PMC2756588.

- target: T1, Pex13, P80667
- T1 sequence (P80667 295-386, looked up): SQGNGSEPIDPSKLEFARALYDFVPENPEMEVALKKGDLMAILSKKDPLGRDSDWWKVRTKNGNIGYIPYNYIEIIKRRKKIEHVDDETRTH
- experimental-protocol: SPOT array
- condition-summary: median of control spots 1341
quantity-measured: SPOT intensity

A selection of reference data follows.
[
  {
    "binder": "PPLPRAPPVPPATFE",
    "SPOT intensity": 14
  },
  {
    "binder": "RKNRAPPQRPRFNRD",
    "SPOT intensity": 10
  },
  {
    "binder": "FLIKFTPKFPQSIDH",
    "SPOT intensity": 73
  },
  {
    "binder": "SKIRPTPRKPSRMAT",
    "SPOT intensity": 40
  },
  {
    "binder": "LFMKGTPEFPKSGFS",
    "SPOT intensity": 211
  }
]

[I] NVLRKILEIPLHSFS
[II] SSTPTTPERPKRKSG
[III] TKFRISLGLPVGAIM
Hi! Can you put these in order of SPOT intensity, lowest number first? Sort and list the labels as requested.
I, II, III

[a] LKQRFFLMFPKSIIW
[b] NLDRSKISLPDFDDE
Select the item with the higher value of SPOT intensity from the options a and b listed. Answer = label.
a

[P] NTMKKRPAPPSLPSL
[Q] AAAPKHAPPPVPNET
[R] KKAPPPVVKPKPRNF
Hi! Can you put these in order of SPOT intensity, lowest number first? Sort and list the labels as requested.
Q, R, P

[I] LLGRKRPVMERVVDI
[II] LRIKRKPVQTFFEFI
Could you determine which record has the numerically smaller SPOT intensity? Candidates: I and II Answer = label.
II
